- STUDY SYSTEM: OXE receptor (Homo sapiens, UniProt Q8TDS5)
- Sequence (Q8TDS5 whole entry): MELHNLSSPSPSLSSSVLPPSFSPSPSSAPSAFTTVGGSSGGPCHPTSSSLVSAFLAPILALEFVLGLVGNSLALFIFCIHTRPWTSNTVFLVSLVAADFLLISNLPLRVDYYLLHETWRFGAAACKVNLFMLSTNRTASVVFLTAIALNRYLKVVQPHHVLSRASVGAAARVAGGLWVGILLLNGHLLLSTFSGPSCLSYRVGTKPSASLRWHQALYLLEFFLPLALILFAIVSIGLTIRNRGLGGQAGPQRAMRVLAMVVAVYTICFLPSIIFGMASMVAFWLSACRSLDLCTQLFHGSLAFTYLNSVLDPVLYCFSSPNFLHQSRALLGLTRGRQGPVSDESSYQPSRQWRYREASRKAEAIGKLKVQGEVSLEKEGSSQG
- ASSAY NAME: 5-oxo-ETE-induced calcium mobilization in indo-1-loaded neutrophils
- Assay type: cell-based
- MEASUREMENT CONDITIONS: compound 10 μM; 5-oxo-ETE 10 nM
MEASURE: Effect on 5-oxo-ETE-induced calcium mobilization

{"MOLECULE": "CCCCCCc1c(C(=O)CC(C)CC(=O)O)c2cc(Cl)ccc2n1C (racemic)", "OBSERVED": "completely blocked"}
{"MOLECULE": "CCCCCCc1cc2ccc(Cl)cc2n1C(=O)CC(C)CC(=O)O (racemic)", "OBSERVED": "completely blocked"}

====

- STUDY SYSTEM: OXE receptor (Homo sapiens, UniProt Q8TDS5)
- ASSAY NAME: 5-oxo-ETE-induced calcium mobilization in indo-1-loaded neutrophils
- Type: cell-based
- MEASUREMENT CONDITIONS: calcium mobilization, 5-oxo-ETE 10 nM

{"MOLECULE": "CCCCCCc1c(C)c2ccccc2n1C(=O)CC(C)CC(=O)O (centres unmarked)", "Antagonist potency compared with 27": "relatively little effect"}
{"MOLECULE": "CCCCCCc1cc2cc(Cl)ccc2n1C(=O)CC(C)CC(=O)O (centres unmarked)", "Antagonist potency compared with 27": "relatively little effect"}
